- Test system: SW-620 colon
- test method notes: NCI tumour cell line growth inhibition, 48 h

| molecule | test target | TGI |
| --- | --- | --- |
| Cn1c(=O)c(-c2ccccc2Cl)cc2cnc(NC3CCOCC3)nc21 | SW-620 colon | > 25 µM |
| CCCOC(=O)c1cc(O)c(O)c(O)c1 | SW-620 colon | > 100 µM |
| Cc1ccc(S(=O)(=O)OC[C@@]2(C)CC[C@]3(C)CC[C@]4(C)C(=C3C2)C=C[C@@H]2[C@@]3(C)CCCNC(C)(C)[C@@H]3CC[C@]24C)cc1 | SW-620 colon | 3.54 µM |
| C=C1OC2OC(C)C(NC(=O)OCC(Cl)(Cl)Cl)C(OC(C)=O)C2O1 (configuration not stated) | SW-620 colon | > 100 µM |
| C=CCOCC1C2CCC3(OCCO3)C21 (configuration not stated) | SW-620 colon | > 100 µM |
| Cc1ccc(-c2nc(NCCOCCOCCN)nc(N3CCN(c4ccccn4)CC3)n2)cc1 | SW-620 colon | 29.2 µM |
| COc1ccc2nc3ccccc3c(NCCNCCO)c2c1 | SW-620 colon | 3.66 µM |
| C[N+](C)(C)CC1CCC(C[N+](C)(C)C)C1=NO (configuration not stated) | SW-620 colon | > 100 µM |
| COc1cc(/C=C(\C)[N+](=O)[O-])cc(OC)c1 | SW-620 colon | 9.16 µM |
| COc1cccc(NC(=O)CC(=O)NN)c1 | SW-620 colon | > 100 µM |
| Cc1ccc(/C=c2\cc3oc(=O)c4cccc(c4-3)c2=O)cc1 | SW-620 colon | > 100 µM |
| C[C@]12CC[C@H]3[C@@H](CC=C4C[C@@H](O)CC[C@@]43C)[C@@H]1C/C(=C\c1cccnc1)[C@@H]2O | SW-620 colon | > 100 µM |
| NCCCN(CCCCN(CCCN)CCCc1ccccc1)CCCc1ccccc1 | SW-620 colon | 10.6 µM |
| CCCN1C(=O)/C(=C/c2ccc(SC(F)(F)F)cc2)SC1=Nc1ccc(OC)cc1 | SW-620 colon | > 50 µM |
| CCc1ccc2c(c1)C(=O)c1c-2n(CCCN)c(=O)c2cc(OC)c(OC)cc12 | SW-620 colon | 3.33 µM |
| CCOC(=O)N1c2ccccc2C(C)=CC(C)C1C (configuration not stated) | SW-620 colon | > 100 µM |
| COc1cc(C2CC(c3ccccc3)=NN2C=O)ccc1Oc1ccnc2cc(Cl)ccc12 (configuration not stated) | SW-620 colon | > 100 µM |
